System: BCG-LPS-induced fulminant hepatitis
Experiment: Inhibitory effect on BCG-LPS-induced fulminant hepatitis in mice (antihepatitis effect)
Type: in vivo, BALB/C mice
Conditions: Mus musculus, po; 50 mg/kg orally; plasma transaminase at hour 4 after LPS; read-out: % Inhibition GPT
Method: The antihepatitis action of the compound of the invention could be confirmed by the following test in mice. This test is the commonest animal test for evaluating the antihepatitis effect of drugs. It is known that the antihepatitis effect evaluated by this test method is highly correlated with the clinical effect in man (Kondo, Y. et al. Chem. Pharm. Bull. 38, 2887-2889, 1990). […] To find the LPS-associated mortality, the percentage of deaths at 48 hours was calculated. […]
The threshold is inclusive: inhibition at 50 mg/kg of exactly 30% counts as yes (1); values below receive no (0).

# molecule, cat
data = [
    ("Cl.Nc1nc(-c2cc(Cl)ccc2Cl)nc(N2CCC[C@@H]2CO)n1 [Example 33, hydrochloride]", "yes (1)"),
    ("Nc1nc(-c2cc(Cl)ccc2Cl)nc(N2CCC(=O)CC2)n1", "yes (1)"),
    ("Nc1nc(-c2cc(Cl)ccc2Cl)nc(N2CCCC2)n1", "yes (1)"),
    ("CNc1nc(N)nc(-c2cc(Cl)ccc2Cl)n1", "yes (1)"),
    ("CN(CCO)c1nc(N)nc(-c2cc(Cl)ccc2Cl)n1", "no (0)"),
]
